# Test: Hydrolytic stability of compound in DMSO-d6/D2O measured after 7 days by 1H-NMR analysis
# Assay type: physicochemical
# Assay setup: 168 h; time 7 day
Measured quantity: Stability

# Compound, Endpoint value
rows = [
    ("N#CC1=C(N)Oc2c(ccc3ccccc23)C1c1cccc([N+](=O)[O-])c1 (centres undefined)", "Stable"),
    ("C#CCOc1c(OC)cc(C2C(C#N)=C(N)Oc3c2ccc2ccccc32)cc1OC (centres undefined)", "Stable"),
    ("COc1cc(C2C(C#N)=C(N)Oc3c2ccc2ccccc32)cc(OC)c1OC (centres undefined)", "Stable"),
]

====

# Test: Cytotoxicity against human EA.hy 926 cells assessed as reduction in cell viability measured after 72 hrs by MTT assay
# Type: toxicity, cell-based
Label T when IC50 at 72 h < 20 nM; otherwise F.

# Molecule, Class label
rows = [
    ("CCCCOc1c(OC)cc(C2C(C#N)=C(N)Oc3c2ccc2ccccc32)cc1OC (stereo not given)", "F"),
    ("COc1cc(C2C(C#N)=C(N)Oc3c2ccc2ccccc32)cc(OC)c1OC(C)C (stereo not given)", "F"),
    ("N#CC1=C(N)Oc2c(ccc3ccccc23)C1c1cccc([N+](=O)[O-])c1 (stereo not given)", "F"),
    ("C=CCOc1c(OC)cc(C2C(C#N)=C(N)Oc3c2ccc2ccccc32)cc1OC (stereo not given)", "T"),
]

====

IC50 reference
# Test system: HT-29
# Test: Cytotoxicity against human HT-29 cells assessed as reduction in cell viability measured after 72 hrs by MTT assay
# Assay type: functional, cell-based
# Assay setup: HT-29, 72 h

# Compound, Units label, IC50
records = [
    ("C#CCOc1c(OC)cc(C2C(C#N)=C(N)Oc3c2ccc2ccccc32)cc1OC (stereo not given)", "nM", 36.9),
    ("N#CC1=C(N)Oc2c(ccc3ccccc23)C1c1cccc([N+](=O)[O-])c1 (stereo not given)", "nM", 32.1),
    ("C=CCOc1c(OC)cc(C2C(C#N)=C(N)Oc3c2ccc2ccccc32)cc1OC (stereo not given)", "nM", 395),
    ("CCOc1c(OC)cc(C2C(C#N)=C(N)Oc3c2ccc2ccccc32)cc1OC (stereo not given)", "nM", 269),
    ("CCCCOc1c(OC)cc(C2C(C#N)=C(N)Oc3c2ccc2ccccc32)cc1OC (stereo not given)", "nM", 671),
]

====

# Assayed target: Transcriptional activator Myb (Homo sapiens)
# Sequence (P10242 whole entry): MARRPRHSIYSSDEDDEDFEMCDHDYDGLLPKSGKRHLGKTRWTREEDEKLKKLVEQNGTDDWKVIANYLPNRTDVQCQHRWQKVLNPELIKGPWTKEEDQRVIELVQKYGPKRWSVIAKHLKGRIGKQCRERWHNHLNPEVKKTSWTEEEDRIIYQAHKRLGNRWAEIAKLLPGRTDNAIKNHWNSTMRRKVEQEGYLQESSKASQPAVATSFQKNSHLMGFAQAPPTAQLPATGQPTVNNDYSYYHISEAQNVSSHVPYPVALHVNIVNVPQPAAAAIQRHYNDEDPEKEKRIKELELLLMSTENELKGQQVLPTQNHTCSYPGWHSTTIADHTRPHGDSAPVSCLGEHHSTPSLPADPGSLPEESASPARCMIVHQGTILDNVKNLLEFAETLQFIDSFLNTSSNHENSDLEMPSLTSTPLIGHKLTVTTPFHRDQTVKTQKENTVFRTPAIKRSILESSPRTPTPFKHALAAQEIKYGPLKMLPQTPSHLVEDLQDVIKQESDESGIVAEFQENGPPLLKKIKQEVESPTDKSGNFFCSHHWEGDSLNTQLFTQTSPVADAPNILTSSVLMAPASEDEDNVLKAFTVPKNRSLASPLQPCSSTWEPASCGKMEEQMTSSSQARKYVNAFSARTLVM
# Test: Inhibition of c-Myb (unknown origin) expressed in HEK293T cells measured after 16 hrs by steady-glo luciferase reporter gene assay
Measured quantity: IC50 (nM)

# Molecule, Assayed target, Measured quantity, Units label, Endpoint value
data = [
    ("COc1ccc(C2C(C#N)=C(N)Oc3c2ccc2ccccc32)cc1OC (stereo unspecified)", "Transcriptional activator Myb (Homo sapiens)", "IC50", "nM", 40),
    ("CCCCOc1c(OC)cc(C2C(C#N)=C(N)Oc3c2ccc2ccccc32)cc1OC (stereo unspecified)", "Transcriptional activator Myb (Homo sapiens)", "IC50", "nM", 30),
    ("CCCOc1c(OC)cc(C2C(C#N)=C(N)Oc3c2ccc2ccccc32)cc1OC (stereo unspecified)", "Transcriptional activator Myb (Homo sapiens)", "IC50", "nM", 30),
    ("CSc1ccc(C2C(C#N)=C(N)Oc3c2ccc2ccccc32)cc1 (stereo unspecified)", "Transcriptional activator Myb (Homo sapiens)", "IC50", "nM", 210),
    ("CCOc1c(I)cc(C2C(C#N)=C(N)Oc3c2ccc2ccccc32)cc1OC (stereo unspecified)", "Transcriptional activator Myb (Homo sapiens)", "IC50", "nM", 50),
    ("Cc1ccc(C2C(C#N)=C(N)Oc3c2ccc2ccccc32)cc1 (stereo unspecified)", "Transcriptional activator Myb (Homo sapiens)", "IC50", "nM", 430),
]

====

# Tested on: KB-V1
# Test: Cytotoxicity against human multidrug-resistant KB-V1 cells assessed as reduction in cell viability measured after 72 hrs in presence of verapamil by MTT assay
# Assay type: functional, cell-based
# Assay setup: KB-V1, 72 h
pIC50: −log10 of the molar value.
pIC50 reference

# Molecule, Assayed target, pIC50
rows = [
    ("C=CCOc1c(OC)cc(C2C(C#N)=C(N)Oc3c2ccc2ccccc32)cc1OC (stereo not drawn)", "KB-V1", 7.80),
    ("C#CCOc1c(OC)cc(C2C(C#N)=C(N)Oc3c2ccc2ccccc32)cc1OC (stereo not drawn)", "KB-V1", 7.97),
    ("CCCCOc1c(OC)cc(C2C(C#N)=C(N)Oc3c2ccc2ccccc32)cc1OC (stereo not drawn)", "KB-V1", 7.38),
    ("CCCOc1c(OC)cc(C2C(C#N)=C(N)Oc3c2ccc2ccccc32)cc1OC (stereo not drawn)", "KB-V1", 7.79),
    ("N#CC1=C(N)Oc2c(ccc3ccccc23)C1c1cccc([N+](=O)[O-])c1 (stereo not drawn)", "KB-V1", 7.12),
    ("CCOc1c(OC)cc(C2C(C#N)=C(N)Oc3c2ccc2ccccc32)cc1OC (stereo not drawn)", "KB-V1", 7.78),
    ("COc1cc(C2C(C#N)=C(N)Oc3c2ccc2ccccc32)cc(OC)c1OC(C)C (stereo not drawn)", "KB-V1", 6.98),
    ("COc1cc(C2C(C#N)=C(N)Oc3c2ccc2ccccc32)cc(OC)c1OC (stereo not drawn)", "KB-V1", 8.06),
]

====

# System: KB-V1
# Test: Cytotoxicity against human multidrug-resistant KB-V1 cells assessed as reduction in cell viability measured after 72 hrs by MTT assay
# Format: functional, cell-based
# Assay setup: KB-V1, 72 h
pIC50: −log10 of the molar value.
pIC50 reference
Measured quantity: pIC50

# Compound, Assayed target, Measured quantity, Endpoint value
records = [
    ("CCCCOc1c(OC)cc(C2C(C#N)=C(N)Oc3c2ccc2ccccc32)cc1OC (stereo not drawn)", "KB-V1", "pIC50", 7.07),
    ("COc1cc(C2C(C#N)=C(N)Oc3c2ccc2ccccc32)cc(OC)c1OC(C)C (stereo not drawn)", "KB-V1", "pIC50", 7.05),
    ("N#CC1=C(N)Oc2c(ccc3ccccc23)C1c1cccc([N+](=O)[O-])c1 (stereo not drawn)", "KB-V1", "pIC50", 7.63),
    ("CCOc1c(OC)cc(C2C(C#N)=C(N)Oc3c2ccc2ccccc32)cc1OC (stereo not drawn)", "KB-V1", "pIC50", 7.68),
    ("C#CCOc1c(OC)cc(C2C(C#N)=C(N)Oc3c2ccc2ccccc32)cc1OC (stereo not drawn)", "KB-V1", "pIC50", 7.22),
    ("C=CCOc1c(OC)cc(C2C(C#N)=C(N)Oc3c2ccc2ccccc32)cc1OC (stereo not drawn)", "KB-V1", "pIC50", 7.73),
    ("COc1cc(C2C(C#N)=C(N)Oc3c2ccc2ccccc32)cc(OC)c1OC (stereo not drawn)", "KB-V1", "pIC50", 7.58),
    ("CCCOc1c(OC)cc(C2C(C#N)=C(N)Oc3c2ccc2ccccc32)cc1OC (stereo not drawn)", "KB-V1", "pIC50", 7.64),
]

====

# System: HeLa
# Test: Cytotoxicity against human HeLa cells assessed as reduction in cell viability measured after 72 hrs by MTT assay
# Assay type: functional, cell-based
Measured quantity: IC50 (nM)

# Compound, Units label, Endpoint value
records = [
    ("COc1cc(C2C(C#N)=C(N)Oc3c2ccc2ccccc32)cc(OC)c1OC(C)C (stereo not drawn)", "nM", 72),
    ("CCOc1c(OC)cc(C2C(C#N)=C(N)Oc3c2ccc2ccccc32)cc1OC (stereo not drawn)", "nM", 21.9),
    ("C=CCOc1c(OC)cc(C2C(C#N)=C(N)Oc3c2ccc2ccccc32)cc1OC (stereo not drawn)", "nM", 22.2),
    ("C#CCOc1c(OC)cc(C2C(C#N)=C(N)Oc3c2ccc2ccccc32)cc1OC (stereo not drawn)", "nM", 24),
    ("CCCCOc1c(OC)cc(C2C(C#N)=C(N)Oc3c2ccc2ccccc32)cc1OC (stereo not drawn)", "nM", 98.9),
    ("N#CC1=C(N)Oc2c(ccc3ccccc23)C1c1cccc([N+](=O)[O-])c1 (stereo not drawn)", "nM", 36.1),
    ("COc1cc(C2C(C#N)=C(N)Oc3c2ccc2ccccc32)cc(OC)c1OC (stereo not drawn)", "nM", 11.3),
    ("CCCOc1c(OC)cc(C2C(C#N)=C(N)Oc3c2ccc2ccccc32)cc1OC (stereo not drawn)", "nM", 33.1),
]

====

# Assayed target: Transcriptional activator Myb (Homo sapiens)
# Test: Inhibition of c-Myb (unknown origin) expressed in HEK293T cells measured after 16 hrs by steady-glo luciferase reporter gene assay
log10 IC50 reference
Measured quantity: log10 IC50 (log10 of the value in nM)

# Molecule, log10 IC50
data = [
    ("COc1cc(C2C(C#N)=C(N)Oc3c2ccc2ccccc32)c(Br)c(OC)c1OC (stereo not given)", 2.11),
    ("C=CCOc1c(OC)cc(C2C(C#N)=C(N)Oc3c2ccc2ccccc32)cc1OC (stereo not given)", 1.15),
    ("COc1cc(C2C(C#N)=C(N)Oc3c2ccc2ccccc32)ccc1OCc1ccccc1 (stereo not given)", 3.00),
    ("N#CC1=C(N)Oc2c(ccc3ccccc23)C1c1ccc(C#N)cc1 (stereo not given)", 2.59),
    ("N#CC1=C(N)Oc2c(ccc3ccccc23)C1c1ccc(S(F)(F)(F)(F)F)cc1 (stereo not given)", 3.51),
    ("COc1cc(C2C(C#N)=C(N)Oc3c2ccc2ccccc32)cc(OC)c1OC (stereo not given)", 0.96),
    ("COc1ccc(C2C(C#N)=C(N)Oc3c2ccc2ccccc32)cc1C (stereo not given)", 2.60),
    ("N#CC1=C(N)Oc2c(ccc3ccccc23)C1c1cccc([N+](=O)[O-])c1 (stereo not given)", 0.94),
    ("N#CC1=C(N)Oc2c(ccc3ccccc23)C1c1cccc(S(F)(F)(F)(F)F)c1 (stereo not given)", 2.11),
    ("CCCCCOc1c(OC)cc(C2C(C#N)=C(N)Oc3c2ccc2ccccc32)cc1OC (stereo not given)", 2.60),
]
